- assayExplanation: Compound cytotoxicity, XTT-based colorimetric assay
- Type: cell-based
- details: human; uninfected MT2 cells, day 4, XTT; read-out: CC50
valueKind: CC50 at 4 days

Any idea what CC50 at 4 days was measured for Cn1nc(NS(C)(=O)=O)c2c(Cl)ccc(-n3c([C@H](Cc4cc(F)cc(F)c4)NC(=O)Cn4nc(C(F)F)c5c4C(F)(F)[C@@H]4C[C@H]54)nc4nc(N5CCOCC5)ccc4c3=O)c21 (atropisomer, axis not shown; (P)) ?
> 100 nM

Any idea what CC50 at 4 days was measured for C[C@@H]1CN(c2ccc3c(=O)n(-c4ccc(Cl)c5c(NS(C)(=O)=O)nn(C)c45)c([C@H](Cc4cc(F)cc(F)c4)NC(=O)Cc4ccn(C5CC5)n4)nc3n2)C[C@H](C)O1 (atropisomer, axis not shown; (P)) ?
> 100 nM

----------
For each of the molecules below, state its CC50 at 4 days.
- assayExplanation: Compound cytotoxicity, XTT-based colorimetric assay
- Assay type: cell-based
- details: human; uninfected MT2 cells, day 4, XTT; read-out: CC50

Any idea what CC50 at 4 days was measured for CC(C)n1ccc(CC(=O)N[C@@H](Cc2cc(F)cc(F)c2)c2nc3nc(N4C[C@@H](C)O[C@@H](C)C4)ccc3c(=O)n2-c2ccc(Cl)c3c(NS(C)(=O)=O)nn(C)c23)n1 (atropisomer, axis not shown; (P)) [Example 18] ?
> 100 nM

Any idea what CC50 at 4 days was measured for CCN(CCC(F)(F)F)c1ccc2c(=O)n(-c3ccc(Cl)c4c(NS(C)(=O)=O)nn(C)c34)c([C@H](Cc3cc(F)cc(F)c3)NC(=O)Cn3nc(C(F)F)c4c3C(F)(F)[C@@H]3C[C@H]43)nc2n1 [Example 10] ?
> 100 nM

Any idea what CC50 at 4 days was measured for Cn1nc(NS(C)(=O)=O)c2c(Cl)ccc(-n3c([C@H](Cc4cc(F)cc(F)c4)NC(=O)Cn4nc(C(F)F)c5c4C(F)(F)[C@@H]4C[C@H]54)nc4nc(N5CC(C)(C)OC(C)(C)C5)ccc4c3=O)c21 (atropisomer, axis not shown; (P)) [Example 26] ?
> 100 nM

Any idea what CC50 at 4 days was measured for Cn1nc(NS(C)(=O)=O)c2c(Cl)ccc(-n3c([C@H](Cc4cc(F)cc(F)c4)NC(=O)Cn4nc(C(F)F)c5c4C(F)(F)[C@@H]4C[C@H]54)nc4nc(N5CCO[C@@H](C(F)(F)F)C5)ccc4c3=O)c21 (atropisomer, axis not shown; (P)) [Example 12] ?
> 100 nM

Any idea what CC50 at 4 days was measured for CN(CCC(F)(F)F)c1ccc2c(=O)n(-c3ccc(Cl)c4c(NS(C)(=O)=O)nn(C)c34)c([C@H](Cc3cc(F)cc(F)c3)NC(=O)Cn3nc(C(F)F)c4c3C(F)(F)[C@@H]3C[C@H]43)nc2n1 (atropisomer, axis not shown; (P)) [Example 30] ?
> 100 nM

Any idea what CC50 at 4 days was measured for C[C@@H]1CN(c2ccc3c(=O)n(-c4ccc(Cl)c5c(NS(C)(=O)=O)nn(C)c45)c([C@H](Cc4cc(F)cc(F)c4)NC(=O)Cn4nc(C(F)F)c5c4C(F)(F)[C@@H]4C[C@H]54)nc3n2)C[C@H](C)O1 (atropisomer, axis not shown; (aR)) [Example 1] ?
> 500 nM

Any idea what CC50 at 4 days was measured for Cn1nc(NS(C)(=O)=O)c2c(Cl)ccc(-n3c([C@H](Cc4cc(F)cc(F)c4)NC(=O)Cn4nc(C(F)F)c5c4C(F)(F)[C@@H]4C[C@H]54)nc4nc(N(CCC(F)(F)F)CC5CC5)ccc4c3=O)c21 (atropisomer, axis not shown; (P)) [Example 14] ?
> 100 nM

Any idea what CC50 at 4 days was measured for C[C@@H]1CN(c2ccc3c(=O)n(-c4ccc(Cl)c5c(NS(C)(=O)=O)nn(CC(F)F)c45)c([C@H](Cc4cc(F)cc(F)c4)NC(=O)Cn4nc(C(F)F)c5c4C(F)(F)[C@@H]4C[C@H]54)nc3n2)C[C@H](C)O1 (atropisomer, axis not shown; (aR)) [Example 3] ?
> 500 nM

Any idea what CC50 at 4 days was measured for Cn1nc(NS(C)(=O)=O)c2c(Cl)ccc(-n3c([C@H](Cc4cc(F)cc(F)c4)NC(=O)Cn4nc(C(F)F)c5c4C(F)(F)[C@@H]4C[C@H]54)nc4nc(NCCC(C)(C)F)ccc4c3=O)c21 (atropisomer, axis not shown; (P)) [Example 24] ?
> 100 nM

Any idea what CC50 at 4 days was measured for Cn1nc(NS(C)(=O)=O)c2c(Cl)ccc(-n3c([C@H](Cc4cc(F)cc(F)c4)NC(=O)Cn4nc(C(F)F)c5c4C(F)(F)[C@@H]4C[C@H]54)nc4nc(N5CCO[C@H](C(F)(F)F)C5)ccc4c3=O)c21 (atropisomer, axis not shown; (P)) [Example 11] ?
> 100 nM

Any idea what CC50 at 4 days was measured for Cn1nc(NS(C)(=O)=O)c2c(Cl)ccc(-n3c([C@H](Cc4cc(F)cc(F)c4)NC(=O)Cn4nc(C(F)F)c5c4C(F)(F)[C@@H]4C[C@H]54)nc4nc(N5CC6CCC(C5)O6)ccc4c3=O)c21 [Example 21] ?
> 100 nM

Any idea what CC50 at 4 days was measured for C[C@@H]1CN(c2ccc3c(=O)n(-c4ccc(Cl)c5c(NS(C)(=O)=O)nn(CC(F)(F)F)c45)c([C@H](Cc4cc(F)cc(F)c4)NC(=O)Cn4nc(C(F)(F)F)c5c4C(F)(F)[C@@H]4C[C@H]54)nc3n2)C[C@H](C)O1 (atropisomer, axis not shown; (aR)) [Example 8] ?
> 500 nM

Any idea what CC50 at 4 days was measured for Cn1nc(NS(C)(=O)=O)c2c(Cl)ccc(-n3c([C@H](Cc4cc(F)cc(F)c4)NC(=O)Cn4nc(C(F)F)c5c4C(F)(F)[C@@H]4C[C@H]54)nc4nc(N5CCOC(C)(C)C5)ccc4c3=O)c21 (atropisomer, axis not shown; (P)) [Example 29] ?
> 100 nM

Any idea what CC50 at 4 days was measured for C[C@@H]1CN(c2ccc3c(=O)n(-c4ccc(Cl)c5c(NS(C)(=O)=O)nn(CC(F)(F)F)c45)c([C@H](Cc4cc(F)cc(F)c4)NC(=O)Cn4ccc(C5CC5)n4)nc3n2)C[C@H](C)O1 (atropisomer, axis not shown; (P)) [Example 17] ?
> 500 nM

Any idea what CC50 at 4 days was measured for C[C@@H]1CN(c2ccc3c(=O)n(-c4ccc(Cl)c5c(NS(C)(=O)=O)nn(C)c45)c([C@H](Cc4cc(F)cc(F)c4)NC(=O)Cn4ccc(C5CC5)n4)nc3n2)C[C@H](C)O1 (atropisomer, axis not shown; (P)) [Example 16] ?
> 500 nM

----------
- assayExplanation: Compound cytotoxicity, XTT-based colorimetric assay
- Format: cell-based
- details: human
valueKind: CC50 at 4 days

Any idea what CC50 at 4 days was measured for `Cn1nc(NS(C)(=O)=O)c2c(Cl)ccc(-n3c([C@H](Cc4cc(F)cc(F)c4)NC(=O)Cn4nc(C(F)F)c5c4C(F)(F)[C@@H]4C[C@H]54)nc4nc(N5C6CCC5COC6)ccc4c3=O)c21` ?
> 100 nM

----------
- assayExplanation: Compound cytotoxicity, XTT-based colorimetric assay
- Type: cell-based
- details: human; uninfected MT2 cells, day 4, XTT; read-out: CC50
valueKind: CC50 at 4 days

Any idea what CC50 at 4 days was measured for Cn1nc(NS(C)(=O)=O)c2c(Cl)ccc(-n3c([C@H](Cc4cc(F)cc(F)c4)NC(=O)Cn4nc(C(F)F)c5c4C(F)(F)[C@@H]4C[C@H]54)nc4nc(NCCC(F)F)ccc4c3=O)c21 (atropisomer, axis not shown; (P)) [Example 34] ?
> 100 nM

Any idea what CC50 at 4 days was measured for C[C@@H]1CN(c2ccc3c(=O)n(-c4ccc(Cl)c5c(NS(C)(=O)=O)nn(CC(F)F)c45)c([C@H](Cc4cc(F)cc(F)c4)NC(=O)Cn4nc(C(F)(F)F)c5c4C(F)(F)[C@@H]4C[C@H]54)nc3n2)C[C@H](C)O1 (atropisomer, axis not shown; (aR)) [Example 4] ?
> 500 nM

Any idea what CC50 at 4 days was measured for C[C@@H]1CN(c2ccc3c(=O)n(-c4ccc(Cl)c5c(NS(=O)(=O)C6CC6)nn(CC(F)F)c45)c([C@H](Cc4cc(F)cc(F)c4)NC(=O)Cn4nc(C(F)(F)F)c5c4C(F)(F)[C@@H]4C[C@H]54)nc3n2)C[C@H](C)O1 (atropisomer, axis not shown; (aR)) [Example 6] ?
> 500 nM

Any idea what CC50 at 4 days was measured for C[C@@H]1CN(c2ccc3c(=O)n(-c4ccc(Cl)c5c(NS(C)(=O)=O)nn(C)c45)c([C@H](Cc4cc(F)cc(F)c4)NC(=O)Cn4nc(C(F)(F)F)c5c4C(F)(F)[C@@H]4C[C@H]54)nc3n2)C[C@H](C)O1 (atropisomer, axis not shown; (aR)) [Example 2] ?
> 500 nM
